For reference, the following Kd results for Bcl-2-like protein 1 (Homo sapiens, UniProt Q07817) were taken from various sources.
Assay Readout: Kd (µM)

// worked examples, Kd included
- CC(C)C(NC1=NS(=O)(=O)c2ccccc21)C(=O)NCC(NC(=O)C1(NC(=O)COc2ccccc2-c2n[nH]c3ccc(Cl)cc23)CC1)C(=O)NC(=O)CCCCC[C@@H]1SC[C@@H]2NC(=O)N[C@@H]21 (some centres not stated): 0.096
- c1ccc(-n2ncc3cncnc32)cc1: 4000
- O=C(NS(=O)(=O)c1ccc(N[C@H](CCN2CCOCC2)CSc2ccccc2)c(S(=O)(=O)C(F)(F)F)c1)c1csc(N2CCc3cccc(C(=O)Nc4nc5ccccc5s4)c3C2)n1: 0.0004

P. CN(C)CCC[C@@](O)(c1ccccc1)c1ccc(Cl)cc1
Q. CN(C)CC[C@H](CSc1ccccc1)Nc1ccc(S(=O)(=O)NC(=O)c2csc(N3CCc4cccc(C(=O)Nc5nc6ccccc6s5)c4C3)n2)cc1[N+](=O)[O-]
R. CN(C)CCCC(O)(c1ccccc1)c1ccccc1
**Q:** Please list the entries, largest Kd first. Output spec: labels arranged per the requested ranking.
**A:** R, P, Q
(R: 5000 µM, P: 500 µM, Q: 0.0005 µM)
